The measured values listed here are drawn from PubChem BioAssay.

experimental_protocol: basal RPMI8226 viability, no added stimulus, profiling panel, cell-based, calcein-AM fluorescence, 48 h, PK04 Diversity Set (AID 1166);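 further: cells grown under basal conditions without added stimulus; test concentration not given here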
protocol_conditions: RPMI8226 myeloma viability, higher = more signal
z-score for assorted molecules

| compound_string | z-score |
| --- | --- |
| NC(=O)NCC#Cc1ccc2c(c1)[C@]1(C(=O)N2)[C@H](C(=O)N2CCCCCCC2)[C@H]2C(=O)O[C@H](c3ccccc3)[C@H](c3ccccc3)N2[C@@H]1c1ccc(O)cc1 | -0.193 |
| COC(=O)[C@@]1(CCC(=O)OC(C)(C)C)N=C(c2ccc(OCCCO)cc2)O[C@H]1c1ccccc1CN=[N+]=[N-] | -3.95 |
| COCCOC(=O)N1C(=O)[C@@]2(c3cc(C#CC4(O)CCCCCC4)ccc31)[C@H](c1ccc(OCCO)cc1)N1[C@H](c3ccccc3)[C@H](c3ccccc3)OC(=O)[C@H]1[C@@H]2C(N)=O | -3.86 |
